# Lookup of reported growth keyed by entry
# Test system: E. coli TESEC Mtb Alr
# Test: growth (OD600 after 10 h); higher = more growth (less inhibition)
# Condition label: arabinose 1000000 nM; compound 0.1 mM; raw OD600 reference: median of DMSO wells 0.193, cell-free background 0.041
Structures can show the parent of a compound that is named as a salt.

Compound	growth
COc1cccc2c1C(=O)c1c(O)c3c(c(O)c1C2=O)C[C@@](O)(C(=O)CO)C[C@@H]3O[C@H]1C[C@H](N)[C@@H](O)[C@H](C)O1 [Epirubicin hydrochloride]	0.0457
CCC1(c2ccccc2)NC(=O)N(C)C1=O (stereo not given)	0.204
OCCN1C[C@H](O)[C@@H](O)[C@H](O)[C@H]1CO	0.184
CC(=O)OCC(=O)[C@@]1(O)[C@H](C)C[C@H]2[C@@H]3CCC4=CC(=O)C=C[C@]4(C)[C@@]3(F)[C@@H](O)C[C@@]21C [Dexamethasone acetate]	0.119
NC(=O)c1cc[n+](CC2=C(C(=O)[O-])N3C(=O)[C@@H](NC(=O)[C@@H](c4ccccc4)S(=O)(=O)O)[C@H]3SC2)cc1 [Cefsulodin sodium salt]	0.203
COc1ccc2[nH]cc(CCNC(C)=O)c2c1	0.183
C[C@@H]1[C@H](O)[C@@H](C)/C=C/C=C/C=C/C=C/C=C/C=C/C=C/[C@H](O[C@@H]2O[C@H](C)[C@@H](O)[C@H](N)[C@@H]2O)C[C@@H]2O[C@](O)(C[C@@H](O)C[C@@H](O)[C@H](O)CC[C@@H](O)C[C@@H](O)CC(=O)O[C@H]1C)C[C@H](O)[C@H]2C(=O)O	0.182
CCC1NC(=O)c2cc(S(N)(=O)=O)c(Cl)cc2N1 (stereo not given)	0.199
Cc1ccc(Cl)c(Nc2ccccc2C(=O)O)c1Cl [Meclofenamic acid sodium salt monohydrate]	0.0435
CN(C)CCCSC(=N)N [Dimaprit dihydrochloride]	0.201
COc1cc2nc(N(C)CCCNC(=O)C3CCCO3)nc(N)c2cc1OC (stereo not given) [Alfuzosin hydrochloride]	0.142
CN1C(C(=O)Nc2ccccn2)=C(O)c2sccc2S1(=O)=O	0.152
O=C(O[C@@H]1C[C@@H]2C[C@H]3C[C@H](C1)N2CC3=O)c1c[nH]c2ccccc12 [Dolasetron mesilate]	0.0823
CC(=O)/N=c1/sc(S(N)(=O)=O)nn1C [Methazolamide]	0.193
O=C(O)Cc1ccccc1Nc1c(Cl)cccc1Cl [Diclofenac sodium]	0.103
